Values were extracted from patent US10654847B2.

Measurement Target: mAChR M1 (UniProt P11229)
Test: mAChR M1 cell-based functional assay (calcium mobilization, potentiation of EC20 acetylcholine response)
Test Context: positive allosteric modulation of EC20 ACh response, mAChR M1 CHO-K1 cells; >10 μM estimated where no plateau; read-out: EC50
Assign EC50 to each entry below.
API: value field is a number in µM; no unit string.

Note to self: EC50 recorded for Cn1cnc2ccc(-c3ccc(CN4Cc5ncccc5C4=O)c(F)c3)cc21 was 0.741

Measured EC50, Cn1ncc2cc(-c3ccc(CN4Cc5ncccc5C4=O)c(F)c3)ccc21 : 0.794

Measured EC50 of Cn1ccc2ccc(-c3ccc(CN4Cc5ccccc5C4=O)c(F)c3)cc21 : 3.1

Consider O=C1c2cccnc2CN1Cc1ccc(-c2ccc3ncccc3c2)cc1F . Its measured EC50 is 0.832

For reference, reported EC50 for Cc1nn(C)cc1-c1ccc(CN2Cc3ccccc3C2=O)c(F)c1 stands at 1.5

EC50 in this record for O=C1c2cccnc2CN1Cc1ccc(-c2cncc(Cl)c2)cc1F : 4.57

Noted for CN1CCc2cc(-c3cc(F)c(CN4Cc5ncccc5C4=O)c(F)c3)ccc21 : its EC50 reads 1.48
